Data origin, for the record: the domain aggregation screens of Martell et al. (2025)

assay: soluble fraction after stress (log2 fold change); higher = more stays soluble; pooled small domains, quantitative proteomics; details: stress: pH 4
Binary call on soluble fraction (log2): Condition met from -0.3 upward, Condition not met beneath that.

Worked set:
>  <biopolymerSequence>
HMELSPAELGERLKVARETANVTQDAGAKAAGIARTTLVAIEKGQRSARIDELQTLSRRYGVSVNSLLRR

>  <classLabel>
Condition met

$$$$
>  <biopolymerSequence>
HMTLPQEPTVLPRPLRVGDTVHIRTLDKDAEVLALPDARGMVAVRAGIINTKVKLTDLTLVEEK

>  <classLabel>
Condition met

$$$$
>  <biopolymerSequence>
HMFIQLSQEEKKVVEGLQQRSKTHLDALALEVGQNISKTAAMLMELEMKGVVRALPGKYYEL

>  <classLabel>
Condition met

$$$$

Then this sequence:
soluble fraction (log2) >= -0.3 for HMTGESIPFSKFLSEVDSGRVINVEIQGNNISGLLSDGNKFKTYSPNYPNLVEILSEKEVSIVATPLE ?
Condition met

====

experiment: soluble fraction after stress (log2 fold change); higher = more stays soluble; pooled small domains, quantitative proteomics; conditions: stress: pH 4
measurementKind: soluble fraction (log2)
Form field (numeric): enter value without unit.

Some sequences with known soluble fraction (log2) results, for comparison:
>  <biopolymerSequence>
HMSDIDHIAGRRIRQARLNAGMTLETLASQAGISKALLSKIENSKVSSPLATFSKISKVLGVPLSDLLKE

>  <soluble fraction (log2)>
0.204

$$$$
>  <biopolymerSequence>
HMNAKNPRALAIQYVFKMQMGNFLHAKTDNQQQEQERIMTLFNEENKNTILPRWGKELLSYINRN

>  <soluble fraction (log2)>
-0.208

$$$$
>  <biopolymerSequence>
HMNRMKLLREQHNLSQTDLAKILNISRQSYNFYENEKRDPDTTMLIRIADFFNVSLDYLLGRTNN

>  <soluble fraction (log2)>
-0.0385

$$$$

Please examine the following record next.
Tell me the measured soluble fraction (log2) of HMPDIFDRGTAHITDAASGVAITFTRTFRIPPEVTMTHKGGTVVAIARLVGSITTGGFTAVLENT , please.
-0.0848

====

assay: soluble fraction after stress (log2 fold change); higher = more stays soluble; pooled small domains, quantitative proteomics; settings: stress: pH 4
Would you please tag the item Fulfilled when its soluble fraction (log2) is -0.2 or above, and Not fulfilled when it is below?

>  <biopolymerSequence>
HMTSAPHHIAAVLRDAIYRGVLEEGGPLHQARIAQSLGVSPIPLREALRLLETEGLVEFRGYRGAFVT

>  <classLabel>
Not fulfilled

$$$$
>  <biopolymerSequence>
HMMEERVIEFANVLRRNGVRVSLAENMDAFRALKSLGISDPLLFRHALRATLIKRGSDIQPFEELFDFFFL

>  <classLabel>
Not fulfilled

$$$$
>  <biopolymerSequence>
HMGQVFEGTFNRKANGKNSVTPAEGGEPVFIAERNSLHAMNGDLVKVSLLAKKKHQPREAQVIEILKRSD

>  <classLabel>
Fulfilled

$$$$
>  <biopolymerSequence>
HMQGQVLQETARKARSQLDSEIPGFNDALYQNLIKSSENYGYKAEEVAQWVDPRAIKVLNDAYQFQQLKAG

>  <classLabel>
Not fulfilled

$$$$
>  <biopolymerSequence>
HMTSGPAWPALSAQQRSVLAPLQRDWHTIDAARKAKWLEVAARFPSMPAEERQRVQERMAEWA

>  <classLabel>
Fulfilled

$$$$

Hi team, for HMAMPQPVARALHRLGQDISAARRMRRLSQEDLAQRIGTSLSTVRRMEDGYPGTALHTFLRALHML , is the recorded soluble fraction (log2) at or above -0.2?
Not fulfilled

Is soluble fraction (log2) for HMGKSPLDALSAREKEVLTYITRGVSINDIAAVLYLSPKTVSTHKTNLMQKLGIENNADLILFGVNHGLND at or above -0.2?
Not fulfilled

Please indicate if the recorded soluble fraction (log2) for HMEKNILPDTSPEKQYEFATSFLKVGDYSTAERAFREFVINNSEHKLAGNAQYWYAETFRIRQ meets or exceeds -0.2.
Fulfilled

====

experiment: soluble fraction after stress (log2 fold change); higher = more stays soluble; pooled small domains, quantitative proteomics; details: stress: pH 4
The sequences listed here are annotated with their soluble fraction (log2).
Could you keep your reply to the number by itself?

Which soluble fraction (log2) value belongs to HMNEGETLYRLRAGDGRARLDKFLAAALPDISRTRFKGLIESGHVRVGGETITEPAYRVKSEAEVELTVPE ?
0.0187

Any idea what its soluble fraction (log2) is? The sequence is HMDLLESLSAREREVVHLASRGLVNKLIARELGITERTVKAHLSSAFEKLHIKDRVHLALLVNGI
-0.48

Look up soluble fraction (log2): HMGKSETALELIKRGHRLIADDAVEITRIGSTLSGTAPELIRNYLEVRGVGVIDVEKLFGVGAVQDSTQI
-0.0577

Dear colleague, I am looking for the recorded soluble fraction (log2) of the following sequence: HMRMRPNERQKRIIELLSFRRHETIGNFANEFGVSRDTIKRDIITLQEEYPIISERGYEGGISLPDGYYI
-0.0594

For the sequence shown here, HMNGTGSVYKLSGKRRNPWRAVVTNGWAYNEEKGKLVQNRVTIGYYHTRDEAIQAIANYNSSP , give the reported soluble fraction (log2).
-0.125

====

assay: soluble fraction after stress (log2 fold change); higher = more stays soluble; pooled small domains, quantitative proteomics; conditions: stress: pH 4
measurementKind: soluble fraction (log2)
Write the number on its own, no unit after it.

Observe how each entry below is paired with its result.
>  <biopolymerSequence>
HMGTVVKRNALVHAWTEFNGGRASTKLLALGPGKVGEWIELENPQSGRKLRGEVQVDGSVRLG

>  <soluble fraction (log2)>
0.296

$$$$
>  <biopolymerSequence>
HMDFNDPTMEKSLVELPAMSNSTLRDLSENNIKKLEELAEMSVGELMDIASKISESDASALIMEARKPWF

>  <soluble fraction (log2)>
-0.741

$$$$
>  <biopolymerSequence>
HMGAYITYEVKPGDTLWDIANKFPGVSADNIKTWNKVDELIKAGERLKINTQTITDYSPDKYPS

>  <soluble fraction (log2)>
-0.575

$$$$

Please examine the following record next.
For HMKVDRLVSMILILLEQQRVGAQELADRFEVSVRTIYRDMEAINQAGIPVRSTSGVGGGFEIM , what is its reported soluble fraction (log2)?
-0.314

====

assay: soluble fraction after stress (log2 fold change); higher = more stays soluble; pooled small domains, quantitative proteomics; settings: stress: pH 4
The entries below come with measured soluble fraction (log2) values attached.
Write the value as a bare number.

Worked cases, soluble fraction (log2) given:
>  <biopolymerSequence>
HMPVFSAEQVAKAEADVQKVANKVQEAGADVEKLTTIHNWLLAREKYMPPDLFSTANQIIATAFQKAG

>  <soluble fraction (log2)>
0.279

$$$$
>  <biopolymerSequence>
HMIMPSDATEAKLLGVLGNEPLHVDEIRNQAELPIEKVSAALALMELKGMVRQVGGMNYVAVR

>  <soluble fraction (log2)>
-0.263

$$$$

Any idea what soluble fraction (log2) was measured for HMGGQYQVRPGETLNQIAARVRPSNMSLSETQKAIIQANPDIFKNGNPNLIFAGDILRIPTGNQI ?
-0.224

Fill in the blank: the reported soluble fraction (log2) of HMVTFDEISQSLVRDVAARRSLSVQTLHAMVDRYNAGSSINAVANQYGIDRLKLREILIELGVHVAT is ____.
-0.44

Data request, read-out soluble fraction (log2), for HMKPTVKGHFTRKESNVGGYADVRGWGVAGTPSMMANQSKDTRRFSTLIVPGRSVNVHPSPTKEAIIWWQS
-0.138

Please report the recorded soluble fraction (log2) for HMSMTLSVLDDVRGLSESRRKQLFHSFGSIKKLREQSKETLMSIPYLPEKVALELYDKLHEE .
0.272

So what does the record say about soluble fraction (log2) for HMEEDPVIAAQRFLNIFRQLHIFTAAKRKEFDELLLKQPASVKGMFASLPGGSVLQEYVNNLEQNAG ?
-0.0952

Item HMEDDRMLVWFFRKSIQNGAQSEAEGRPIFEGKDYVHIQQPGERDYIEREAHQGDIGRWPRHWQAYQEGR has what recorded soluble fraction (log2)?
-0.359

====

Items are presented alongside their recorded soluble fraction (log2).
experiment: soluble fraction after stress (log2 fold change); higher = more stays soluble; pooled small domains, quantitative proteomics; conditions: stress: pH 4
Give your answer as a number; write no unit.

Example sequences with recorded soluble fraction (log2):
>  <biopolymerSequence>
HMRKSLGEIVFDRMERAIKSGAYSPDERLPTELDLAAEFEVSRPVIRDALKRLRERGLIYSRQGAGSFVRA

>  <observed>
-0.25

$$$$
>  <biopolymerSequence>
HMETGFADTLRKFRKEADMTQEKLAEALGVTTGAVYKWENGRSTPEVRLLVEMADLFGTSVDALLDYKVR

>  <observed>
-0.723

$$$$
>  <biopolymerSequence>
HMIPDPPALGSNLHRERRRQQLSLDALAAASGVSKAMLSQIEADKVNPTIATMWKIAHALNIDFETLLRGE

>  <observed>
0.172

$$$$
>  <biopolymerSequence>
HMTTVSINTTGIITASTIRASSALYPPLYTTVQRDAGTFSAGAIIFNSTTSKLEFYDGTTWQSLPG

>  <observed>
0.285

$$$$
>  <biopolymerSequence>
HMKSYAQIAEILSGQQPNTSRKEGSNLAVHADWIDALIAKYGTALRPEEANEVVKKEIGIVFSHVLEN

>  <observed>
-1

$$$$
>  <biopolymerSequence>
HMNTEEKILEKEFLMLYSELGLQPKNIYELMENTGLKYEKLVEMLLQLQLKGLVEQPSYNYYSRL

>  <observed>
-2.46

$$$$
>  <biopolymerSequence>
HMRSSALDEIPGIGKQRKKNLLVHFTSVAKIKEASLDEIAAVPGMNRKAALVVVEFFQNQERE

>  <observed>
0.158

$$$$
>  <biopolymerSequence>
HMEIRNLMPILSHFLNENDIKLSRESVNLVLDRASGNRENLNNELKKIHDYSFSNKIIDFETIKKLTNLG

>  <observed>
-0.215

$$$$
>  <biopolymerSequence>
HMIDDNTIIQIGDSYSKSIRLLGEPIELKNRSLNQKSYFMAVYDFKGRRYRLFFENDVLFDILRD

>  <observed>
-0.486

$$$$
>  <biopolymerSequence>
HMADTFVMPDLVYRRYEPVRGYFERGGFHMGAVKFEPYEGISDGTILRQNPLPGHPLRRRDVISLVVAAS

>  <observed>
-0.464

$$$$

Which value of soluble fraction (log2) has been reported for HMTAFSEQLIKLRKQKGLSQEQLGAAVGVTRQTVSKWELGDTTPELGKLVQLSDYFQLSIDELVGH in the records?
0.177

Given the sequence HMSDLLYAHPTEKGFQLVNVTQKVVMVILKTAAPNVYTVKGKNAIVFKEGNSWFYSENHNKKLLNIK , what is its reported soluble fraction (log2)?
-0.1

Entry HMKDIIVLGAIQAGIKKFDKIQKMTQIEPEELNSILEQLENRGFIQVAEKSGLLGKKIEILVTEKGSNEVD has what soluble fraction (log2)?
-0.484

Query: soluble fraction (log2); subject: HMNTEEVGSYLKKLRLEHSFTQKELAGKLYITHQAVSNWEKGKALPDIGILSQLGDIYGISIDNLLLK
-0.551

Please report the recorded soluble fraction (log2) for HMEVTLGLGSMVRLLGEPYLGSTGRVVELPDQAERFASGLTAKVAVVERHDGELIRVPVTNLLLME .
0.214

Entry HMGVVEEVAADFEGRAVVGKVDVDEQTELARRFGIMSIPTLVVMKGGKVVEQAVGARGKADIAAMLERH : reported soluble fraction (log2) = ?
-0.673

Looking for the measured soluble fraction (log2) of HMTNKQEYAYQWLKSSIIENKIKPSTLLVERHLSEMLHISRTPVRTALMRLADEGFVVISPGRGMVVA , can you help?
-0.0492

Consider the sequence HMFEQRLRQAMKELRLKQVQVAGLTGKSRGAISQYLSGDRVPPDGVQREMAIALGLEADYFSR and give its measured soluble fraction (log2).
0.343

Can you share its soluble fraction (log2)? I mean this sequence: HMAQTTKWREIHKVKRKETIFGIARDNGLTVDELIEANPEMTKPGYELKKGDFIYIPFPSKNIDTNAGTQT
-0.627

Field request: soluble fraction (log2) | item: HMVSVGDIFAGRIISNENGHLLLQLLDGSKISAQTVTDLKYNIGDVLNLEIIEEKQGLIFVRQT
-0.471

Could you tell me which soluble fraction (log2) is on file for HMAMDYTVVHSDRRTIAIQIQRDGRVVVRAPYAATAEDIRRVVDSHRDWVEKTVRRQQEQLAAS ?
0.238

Report soluble fraction (log2) for HMSADLVYLRKRLQDAIAQLPENMRTAYTLFQIANRSIREISELTGASESLVKVRIHRAKGKLQKQLEDLK please.
-0.5

Given the sequence HMHVLAVDEALHKLTELNELHAKIVEMRFFSGMTVQEVADELGVSKRKIESEWTMIKAWLRKELN , what is its reported soluble fraction (log2)?
-0.916

Reported soluble fraction (log2), sequence HMVMETLAERINTALQTKGLSVNALARRVGVSYPAMRKITKGETLNPKFLFEIAEALGVSVEWLKTGEGSP : ____
0.0978

Need soluble fraction (log2), item HMEETLEELGKEYESAFTMYEKLWSYYKKQNYHQVNHKRSERYEILLGFVREYHPEKVEYYRELL
-0.482

Please look up its soluble fraction (log2): HMSSEMATLRSIVDNKQAEKVHGMMVDMFTASAMVQVYDKVNDENQAKMREMLKTQKGFQRMADFALSKI
-0.535

May I ask what soluble fraction (log2) has been recorded for HMEAVLTISPGMYSESVSAELVRLGIITNQKEFNSYLVNNGYAERIQTGDFKIKADMSYDEIARIITK ?
-0.489
